Entries annotated with measured BW Luc assay plate bound 7.3 nM IgG, FOC
measured target: human TREM2/DAP12 fusion protein (human, UniProt O43914 41-113, limits assumed)
Sequence (O43914 other isoform, or with tags, fused parts or gaps limits assumed): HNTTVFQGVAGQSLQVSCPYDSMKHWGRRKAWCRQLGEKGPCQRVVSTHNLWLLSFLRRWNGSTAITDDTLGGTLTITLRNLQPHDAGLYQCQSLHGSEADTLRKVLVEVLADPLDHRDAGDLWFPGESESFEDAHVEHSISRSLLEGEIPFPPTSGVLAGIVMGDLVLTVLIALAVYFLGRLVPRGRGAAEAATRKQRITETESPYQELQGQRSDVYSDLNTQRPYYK
experimental protocol: cell-based or functional assay
// note: answer is a bare numeric in FOC

Some solved cases for reference:
AL2p-52 (antibody, V domains shown, Fab and IgG formats under one id) VH: EVQLVQSGAEVKKPGSSVKVSCKASGYAFSSHWMNWVRQAPGQGLEWMGRIYPGEGDTNYAQKFHGRVTITADESTSTAYMELSSLRSEDTAVYYCARLLRNQPGESYAMDYWGQGTLVTVSS VL: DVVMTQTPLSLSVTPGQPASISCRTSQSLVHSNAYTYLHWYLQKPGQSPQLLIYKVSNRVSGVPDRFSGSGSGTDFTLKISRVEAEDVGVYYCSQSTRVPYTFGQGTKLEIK; 1.3
AL2p-42 (antibody, V domains shown, Fab and IgG formats under one id) VH: QVQLVQSGAEVKKPGSSVKVSCKASGYAFSSHWMNWVRQAPGQGLEWMGRIYPGEGDTNYAQKFRGRVTITADESTSTAYMELSSLRSEDTAVYYCARLLRNQPGASYAMDYWGQGTLVTVSS VL: GVVMTQTPLSLSVTPGQPASISCRTSRSLVHSNRYTYLHWYLQKPGQSPQLLIYKVSNRRSGVPDRFSGSGSGTDFTLKISRVEAEDVGVYYCSQSTRVPYTFGQGTKLEIK; 6.52

Proceed to the following item.
[ask] For the binder shown here, AL2p-48 (antibody, V domains shown, Fab and IgG formats under one id) VH: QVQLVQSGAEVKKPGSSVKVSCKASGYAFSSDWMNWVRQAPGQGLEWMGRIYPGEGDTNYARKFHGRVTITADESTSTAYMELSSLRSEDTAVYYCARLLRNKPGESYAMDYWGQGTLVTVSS VL: DVVMTQTPLSLSVTPGQPASISCRTSQSLVHSNQYTYLHWYLQKPGQSPQLLIYKVSNRVSGVPDRFSGSGSGTDFTLKISRVEAEDVGVYYCSQSTRVPYTFGQGTKLEIK , give the reported BW Luc assay plate bound 7.3 nM IgG, FOC.
[reply] 3.25
